Measured Max Inhibition (%) of individual entries
Molecular target: T1, human CCR8 (human, UniProt P51685 1-355)
T1 construct: whole, on cells; also called hCCR8
T1 sequence (P51685 whole entry): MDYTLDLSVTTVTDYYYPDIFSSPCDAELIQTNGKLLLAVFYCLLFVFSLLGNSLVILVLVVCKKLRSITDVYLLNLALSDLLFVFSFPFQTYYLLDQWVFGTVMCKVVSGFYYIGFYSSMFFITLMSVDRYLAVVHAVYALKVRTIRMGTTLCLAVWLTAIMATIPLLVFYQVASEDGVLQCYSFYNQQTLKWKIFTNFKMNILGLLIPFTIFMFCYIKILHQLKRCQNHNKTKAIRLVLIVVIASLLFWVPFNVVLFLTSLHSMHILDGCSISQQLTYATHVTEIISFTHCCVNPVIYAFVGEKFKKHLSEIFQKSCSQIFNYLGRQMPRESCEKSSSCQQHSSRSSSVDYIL
Test: FACS, competition with AF647-human CCL1 on CHO-K1-human CCR8 cells
The figure you give is taken to be in %; do not add the unit.

binder	units-of-measure	Max Inhibition (%)
Hu348-2 (antibody, V domains shown, humanized IgG) VH: EVQLVESGGGLVQPGGSLKLSCATSGFSFSNYRMHWLRQASGKGLEWVGVITVKSDNYGANYAASVKGRFTISRDDSKSSVYLQMNSLKTEDTAVYYCSSLGRVAYWGQGTLVTVSS VL: DIQMTQSPSSVSASVGDRVTITCKASQNVDTNVVWYQQKPGKAPKALIYSASSRYSGVPDRFSGSGSGTDFTLTISSLQPEDFATYYCQQHNSFPLTFGQGTKLEIK	%	92.4
Hu348-3 (antibody, V domains shown, humanized IgG) VH: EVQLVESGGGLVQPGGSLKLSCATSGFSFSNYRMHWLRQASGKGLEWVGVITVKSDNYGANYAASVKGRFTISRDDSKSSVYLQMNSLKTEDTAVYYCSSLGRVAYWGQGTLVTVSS VL: DIQMTQSPSSVSASVGDRVTITCKASQNVDTNVVWYQQKPGQSPKLLIYSASSRYSGVPDRFSGSGSGTDFTLTISSLQPEDFATYYCQQHNSFPLTFGQGTKLEIK	%	83.1

Now look at this entry.
IN: Data request, read-out Max Inhibition (%), for CM348 (antibody, V domains shown, CM348 is not defined in words; also called CM348 HuIgG1; parental antibody CM348) VH: QVQLVETGGGLVRPGNSLKLSCVTSGFSFSNYRMHWLRQPPGKRLEWIAVITVKSDNYGANYAESVKGRFTISRDDSKSSVYLQMNRLREEDTATYYCSSLGRVAYWGQGTLVTVSA VL: DIVMTQSQKFMFTSVGDRVSVTCKASQNVDTNVVWYQQKPGQSPKALIYSASSRYSGVPDRFTGSGSGTDFTLTISNVQSEDLAEYFCQQHNSFPLTFGAGTKLELI
OUT: 96.4
